Source of measurements: patent US20240343726A1

target: LATS1 kinase (Homo sapiens (Human)); assay: LATS1 Biochemical HTRF Assay; conditions: 2 mM ATP; read-out: LATS1_HTRF_2 mM ATP IC50
pIC50: −log10 of the molar value.
Record yes whenever pIC50 is at 8 or higher; record no when lower.

compound	label-value
O=C(/N=C1\SCCN1c1cccc(F)c1O)c1c[nH]c2ncccc12 [Example 73]	yes
O=C(/N=C1\SCCCN1Cc1ccccc1)c1c[nH]c2ncccc12 [Example 25]	yes
O=C(/N=c1\sc(CO)cn1Cc1ccccc1)c1ccnc2[nH]ccc12 [Example 62]	no
O=C(/N=c1\sccn1-c1cccc(Cl)c1)c1ccnc2[nH]ccc12 [Example 43]	no
CN(C)Cc1cs/c(=N\C(=O)c2c[nH]c3ncccc23)n1-c1ccccc1Cl [Example 66]	yes
O=C(/N=c1\scc(CO)n1-c1ccccc1Cl)c1ccnc2[nH]ccc12 [Example 55]	no
Cc1cs/c(=N\C(=O)c2ccnc3[nH]ccc23)n1C1CCCCC1 [Example 51]	no
CN(C)Cc1cs/c(=N\C(=O)c2c[nH]c3ncccc23)n1C1CCCCC1 [Example 69]	yes
Cc1cs/c(=N\C(=O)c2ccnc3[nH]ccc23)n1Cc1ccccc1 [Example 53]	no

----------
Molecular target: LATS1 kinase (Homo sapiens (Human))
Assay: LATS1 Biochemical HTRF Assay
Settings: 2 mM ATP; read-out: LATS1_HTRF_2 mM ATP IC50
Procedure: LATS1 Biochemical HTRF Assay MgCl2 and [1 mM] DTT. 1× Enzymatic buffer diluted from 5× Enzymatic buffer*. Add 0.5 μL of 20× compound in 100% DMSO. […] MgCl2, [1 mM] DTIT and [5 mg/mL] BSA. 5×ERR prepared from 5× Enzymatic buffer with [25 mg/mL] BSA. Mix plate on plate shaker set at 1,350 rpm for 30 seconds, then centrifuge plate at 1,000 rpm for 1 minute. Incubate for 30 minutes at 25° C. on plate shaker set to 500 rpm. […] STK Substrate 1-biotin* then add 2 μL [10 mM] ATP. […]
pIC50: −log10 of the molar value.
value-type: pIC50

molecule	measured-value
COc1ccccc1-n1ccs/c1=N\C(=O)c1ccnc2[nH]ccc12	5.75
CNC(=O)C1CS/C(=N\C(=O)c2c[nH]c3ncccc23)N1c1ccccc1 (stereo not drawn)	8.10
CNC(=O)C1CS/C(=N\C(=O)c2c[nH]c3ncccc23)N(c2ccccc2)C1 (stereo not drawn)	7.64
O=C(/N=C1\SCCN1c1ccc(O)cc1)c1c[nH]c2ncccc12	7.89
O=C(/N=C1\SCC(CO)N1Cc1ccccc1)c1c[nH]c2ncccc12 (stereo not drawn)	7.77
CNC(=O)c1cs/c(=N\C(=O)c2ccnc3[nH]ccc23)n1-c1ccccc1Cl	7.32
O=C(/N=c1\sccn1-c1ccc(Cl)cc1)c1ccnc2[nH]ccc12	6.44
CCc1ccccc1-n1ccs/c1=N\C(=O)c1ccnc2[nH]ccc12	6.12
CN(C)C(=O)CN1CCCS/C1=N\C(=O)c1c[nH]c2ncccc12	5.77

----------
target: UniProtKB O95835; experiment: LATS1 Biochemical HTRF Assay; conditions: 2 mM ATP; read-out: LATS1_HTRF_2 mM ATP IC50
pIC50: −log10 of the molar value.
Parameter: pIC50. Scope: all listed entries.

compound	pIC50
O=C(/N=C1\SCCN1c1ccccc1)c1c[nH]c2ncccc12 [Example 2]	9.08
O=C(/N=c1\scc(CO)n1Cc1ccccc1)c1ccnc2[nH]ccc12 [Example 54]	6.74
O=C(/N=C1\SCC(CO)CN1c1ccccc1)c1c[nH]c2ncccc12 (stereo not drawn) [Example 35]	8.41
O=C(/N=c1\sccn1Cc1ccccc1)n1ccc2ncccc21 [Example 86]	6.05
O=C(/N=C1\SCC2CNCCN12)c1c[nH]c2ncccc12 (stereo not drawn) [Example 22]	5.67
O=C(/N=C1\SCCN1c1c(O)cccc1F)c1c[nH]c2ncccc12 [Example 70]	9.22

----------
target: LATS1 kinase (Homo sapiens (Human), UniProt O95835); experiment: LATS1 Biochemical HTRF Assay
Sequence (O95835 589-1130): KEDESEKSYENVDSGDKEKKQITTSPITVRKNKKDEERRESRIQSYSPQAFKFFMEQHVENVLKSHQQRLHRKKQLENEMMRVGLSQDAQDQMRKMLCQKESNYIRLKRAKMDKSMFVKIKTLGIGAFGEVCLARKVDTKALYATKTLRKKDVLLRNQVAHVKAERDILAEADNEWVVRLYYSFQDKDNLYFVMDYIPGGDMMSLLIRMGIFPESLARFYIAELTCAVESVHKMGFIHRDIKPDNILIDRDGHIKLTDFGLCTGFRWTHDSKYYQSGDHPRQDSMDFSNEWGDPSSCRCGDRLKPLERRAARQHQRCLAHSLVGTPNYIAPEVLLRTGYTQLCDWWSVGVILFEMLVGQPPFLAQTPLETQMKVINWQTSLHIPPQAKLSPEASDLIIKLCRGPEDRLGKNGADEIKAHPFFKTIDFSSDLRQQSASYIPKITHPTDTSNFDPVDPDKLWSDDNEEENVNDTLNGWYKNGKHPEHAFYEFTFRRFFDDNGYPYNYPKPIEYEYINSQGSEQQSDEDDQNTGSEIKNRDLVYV

molecule	IC50, nM
CC1(C)CS/C(=N\C(=O)c2c[nH]c3ncccc23)N1C1CCCCC1 [Example 12]	1.1

----------
target: LATS1 kinase (Homo sapiens (Human)); assay: LATS1 Biochemical HTRF Assay; conditions: 2 mM ATP; read-out: LATS1_HTRF_2 mM ATP IC50
pIC50: −log10 of the molar value.
Record Met whenever pIC50 is at 7 or higher; record Not met when lower.

molecule	target-or-test-system	label-value
CC(=O)NCc1cs/c(=N\C(=O)c2ccnc3[nH]ccc23)n1-c1ccccc1Cl	LATS1 kinase (Homo sapiens (Human))	Not met
O=C(/N=C1\SCCN1Cc1ccccc1)c1c[nH]c2ncccc12	LATS1 kinase (Homo sapiens (Human))	Met
CN(C)Cc1cs/c(=N\C(=O)c2ccnc3[nH]ccc23)n1-c1ccccc1Cl	LATS1 kinase (Homo sapiens (Human))	Not met
N#Cc1cc2ncccc2n1C(=O)/N=c1\sccn1-c1ccccc1	LATS1 kinase (Homo sapiens (Human))	Not met
CC(=O)N1CCC(N2CCCS/C2=N\C(=O)c2c[nH]c3ncccc23)CC1	LATS1 kinase (Homo sapiens (Human))	Not met
O=C(/N=C1\SCCN1c1ccccc1Cl)c1c[nH]c2ncccc12	LATS1 kinase (Homo sapiens (Human))	Met
CN(C)C(=O)CN1CCS/C1=N\C(=O)c1c[nH]c2ncccc12	LATS1 kinase (Homo sapiens (Human))	Not met
O=C(/N=c1\sccc(=O)n1-c1ccccc1)c1c[nH]c2ncccc12	LATS1 kinase (Homo sapiens (Human))	Not met
Cc1cn(-c2ccccc2Cl)/c(=N/C(=O)c2ccnc3[nH]ccc23)s1	LATS1 kinase (Homo sapiens (Human))	Not met
O=C(/N=c1\sccn1-c1ccc(CO)cc1Cl)c1ccnc2[nH]ccc12	LATS1 kinase (Homo sapiens (Human))	Not met
Cc1cs/c(=N\C(=O)c2ccnc3[nH]ccc23)n1CC1CCCCC1	LATS1 kinase (Homo sapiens (Human))	Met
O=C(/N=C1\SCCN1c1cccc(=O)[nH]1)c1c[nH]c2ncccc12	LATS1 kinase (Homo sapiens (Human))	Not met
O=C(/N=C1\SCCCN1c1ccccc1)c1ccnc2[nH]ccc12	LATS1 kinase (Homo sapiens (Human))	Not met
O=C(/N=C1\SCCN1C1CCCCC1)c1c[nH]c2ncccc12	LATS1 kinase (Homo sapiens (Human))	Met
O=C(/N=C1\SCC(CO)N1c1ccccc1Cl)c1c[nH]c2ncccc12 (stereo not shown)	LATS1 kinase (Homo sapiens (Human))	Met
O=C(/N=C1\SCCCCN1Cc1ccccc1)c1c[nH]c2ncccc12	LATS1 kinase (Homo sapiens (Human))	Not met
O=C(/N=c1\sccn1-c1ccccc1C(F)(F)F)c1ccnc2[nH]ccc12	LATS1 kinase (Homo sapiens (Human))	Not met
O=C(/N=c1\sc(CO)cn1-c1ccccc1Cl)c1ccnc2[nH]ccc12	LATS1 kinase (Homo sapiens (Human))	Not met
O=C(/N=C1\SCCN1c1cccc(O)c1)c1c[nH]c2ncccc12	LATS1 kinase (Homo sapiens (Human))	Met
COCCN(C)Cc1cs/c(=N\C(=O)c2c[nH]c3ncccc23)n1-c1ccccc1Cl	LATS1 kinase (Homo sapiens (Human))	Met
CN(C)Cc1cs/c(=N\C(=O)c2c[nH]c3ncccc23)n1Cc1ccccc1	LATS1 kinase (Homo sapiens (Human))	Met
O=C(/N=C1\SCCN1C1CCC(O)C1)c1c[nH]c2ncccc12 (stereo not shown)	LATS1 kinase (Homo sapiens (Human))	Met
O=C(/N=C1\SCC(CO)N1c1ccccc1)c1c[nH]c2ncccc12 (stereo not shown)	LATS1 kinase (Homo sapiens (Human))	Met
O=C(/N=C1\SCCCN1c1cccc(O)c1)c1c[nH]c2ncccc12	LATS1 kinase (Homo sapiens (Human))	Met
CN(C)CC1CS/C(=N\C(=O)c2c[nH]c3ncccc23)N1c1ccccc1 (stereo not shown)	LATS1 kinase (Homo sapiens (Human))	Met
O=C(/N=C1\SCCCCN1c1ccccc1)c1c[nH]c2ncccc12	LATS1 kinase (Homo sapiens (Human))	Not met
O=C(/N=C1\SCCN1c1c(O)cccc1Cl)c1c[nH]c2ncccc12	LATS1 kinase (Homo sapiens (Human))	Met
O=C(/N=C1\SCCCN1c1ccccc1Cl)c1ccnc2[nH]ccc12	LATS1 kinase (Homo sapiens (Human))	Not met
CC1(C)CS/C(=N\C(=O)c2c[nH]c3ncccc23)N(C2CCCCC2)C1	LATS1 kinase (Homo sapiens (Human))	Not met
O=C(/N=C1\SCCCN1C1CCCCC1)c1c[nH]c2ncccc12	LATS1 kinase (Homo sapiens (Human))	Met
O=C(/N=C1\SCCN1C1CCCC1O)c1c[nH]c2ncccc12 (stereo not shown)	LATS1 kinase (Homo sapiens (Human))	Not met
O=C(/N=C1\SCC2CCCCN12)c1c[nH]c2ncccc12 (stereo not shown)	LATS1 kinase (Homo sapiens (Human))	Not met
CN(C)C(=O)c1cs/c(=N\C(=O)c2ccnc3[nH]ccc23)n1-c1ccccc1Cl	LATS1 kinase (Homo sapiens (Human))	Not met
O=C(/N=C1\SCCN1c1ccc(F)cc1O)c1c[nH]c2ncccc12	LATS1 kinase (Homo sapiens (Human))	Met
O=C(/N=c1\sccn1C1CCCCC1)c1ccnc2[nH]ccc12	LATS1 kinase (Homo sapiens (Human))	Not met
CCc1ccccc1N1CCS/C1=N\C(=O)c1c[nH]c2ncccc12	LATS1 kinase (Homo sapiens (Human))	Met
